# test description: yeast display, Sf9 membrane polyspecificity reagent, FACS + sequencing; frameworks hold sequencing errors
measurement type: polyreactivity (PSR sort gate)

# example entries with known answers
biopolymer sequence | polyreactivity (PSR sort gate)
QVQLVESGGGLVQAGGSLRLSCAASGRIFARNTMGWYRQAPGKERELVAAISWGGGRTYYADSVKGRFTISRDNAKNTVYLQMNSLKPEDTAVYYCAAETLQIPRGEYWGQGTQVTVSS | low polyreactivity
QVQLLESGRGLVQAGGTLRLSCAPSGRTFSVNAMGWYRQAPGKERELVAAISWDGGSTYYADSVKVRFTISRDNAKNTVYLQMNSLKQEDTAVYYCNKDLYYAYDYWGQGTQVTVSS | low polyreactivity
QVQLVESGGGLVQAGGSLRLSCAASGRNFGSNTMGWYRQAPGKERELVAAITGDDSTYADSVKGRFTISRDNAKNTVYLQMNSLKPEDTAVYYCAVVWVWDVWFLVYYWGQGTQVTVSS | low polyreactivity
QVQLVESGGGLVQAGGSLRLSCASSGRTFAYNALGWYREAPGKERELVAAISASGGSTYYADSVKGRFTISRDNAKNTVYLQMNSLKPEDTAVYYCAAYVRSAYYAIHVDYWGQGTQVTVSA | low polyreactivity
QVQLVESGGGLVQAGGSLRLSCAASGRTFWWYAMGWYRQAPGKERELVAAITQSGGSTFYADSVKGRFTISRDNAKNTVYLQMNSLKPEDTAVYYWGQGTQVTVSS | low polyreactivity
QVQLVESGGGLVQAGGSLRLSCAASGRIIDRNAMGWYRQAPGKERELFAAISSSGSTNYADSVKGRFTISRDNAKNTVYLQMNSLKPEDTAVYYCAARWRYVLAAGTRPVSFDYWGQGTQVTVSS | low polyreactivity
QVQLVESGGGLVQAGGSLRLSCAASGLTFLYYAMGWYRQAPGKEREFVAAIDISGGSTYYADSVKGRFTISRDNAKKTVYLQMYSLKPEDTAVYYCAVEPWYYLAGRSQYDYWGQGTQVTVSS | low polyreactivity
QVQLVESGGCLVQAGGSLRLSCAASGRIFFLYAMGWYRQAPGKERELVAAITWSADGTYYADSVKGRFTISRDNAKNTVYLQMNSLKPEDTAVYYCNADAYTTASSYNWWYYYWGQGTQVTVSS | low polyreactivity

Input line: Any idea what polyreactivity (PSR sort gate) was measured for QVQLVESGGGLVQAGGSLRLSCAASGSIFGSYAMGWYRPAPGKERELVAAITRAGSTNYADSVKGRFTISRDNAKNTVYLQMNSLKPEDTAVYYCAVRPGFGRSLWYGYWGQGTQVTVSS ?
Output line: low polyreactivity
